- System: IL-13 induced STAT6 phosphorylation in BEAS-2B human lung epithelial cells
- Assay details: Cellular JAKI potency assay (BEAS-2B)
- Type: cell-based
- Condition: Homo sapiens, BEAS-2B, BEAS-2B cells, read-out: BEAS2B pIC50 (converted)
Endpoint name: IC50

Solved entries:
INSERT INTO results (molecule, assay_system, endpoint_name, result) VALUES
  ('CCc1cc(O)ccc1-c1ccc2c(-c3nc(C4=CCN(Cc5cnc[nH]5)C4)c[nH]3)n[nH]c2c1 [Example 142]', 'IL-13 induced STAT6 phosphorylation in BEAS-2B human lung epithelial cells', 'IC50', '0.01 to 0.0316 µM'),
  ('CCc1cc(O)ccc1-c1ccc2c(-c3nc(C4=CCN(C(=O)COCCN(C)C)C4)c[nH]3)n[nH]c2c1F [Example 374]', 'IL-13 induced STAT6 phosphorylation in BEAS-2B human lung epithelial cells', 'IC50', '0.0316 to 0.1 µM'),
  ('CCc1cc(O)ccc1-c1ccc2c(-c3nc(C4=CCN(C[C@@H]5COCCN5C)C4)c[nH]3)n[nH]c2c1F [Example 221]', 'IL-13 induced STAT6 phosphorylation in BEAS-2B human lung epithelial cells', 'IC50', '0.01 to 0.0316 µM'),
  ('CCc1cc(O)ccc1-c1ccc2c(-c3nc(C4=CCCNC4C)c[nH]3)n[nH]c2c1F (stereo not drawn) [Example 237]', 'IL-13 induced STAT6 phosphorylation in BEAS-2B human lung epithelial cells', 'IC50', '0.01 to 0.0316 µM'),
  ('CCc1cc(O)ccc1-c1ccc2c(-c3nc(C4=CCN(C(=O)[C@@H]5CCCN5)CC4)c[nH]3)n[nH]c2c1 [Example 177]', 'IL-13 induced STAT6 phosphorylation in BEAS-2B human lung epithelial cells', 'IC50', '0.0316 to 0.1 µM');

Ask: Param item = CCc1cc(O)ccc1-c1ccc2c(-c3nc(C4=CCN(CCCO)C4)c[nH]3)n[nH]c2c1 [Example 297] ; retrieve measured IC50.
Reply: 0.01 to 0.0316 µM

Ask: Which IC50 value is on record for CCc1cc(O)ccc1-c1ccc2c(-c3nc(C4=CCCN(CCC5(O)CC5)C4)c[nH]3)n[nH]c2c1F [Example 338] ?
Reply: 0.01 to 0.0316 µM

====

Here, each record is paired with measured AUC(0-t) data.
- Assay details: Pharmacokinetics in plasma and lung in mouse after oral aspiration administration
- Assay type: in vivo
- Condition: mouse, inhaled or intranasal, 0.01 mg/mouse, male CD1 mice, 0.2 mg/mL, two 25 μL increments, plasma, read-out: Plasma AUC(0-24)

Some solved cases for reference:
INSERT INTO results (molecule, endpoint_name, result) VALUES
  ('CCc1cc(O)ccc1-c1ccc2c(-c3nc(C4=C(C)CNCC4)c[nH]3)n[nH]c2c1F', 'AUC(0-t)', '500 to 1000 ng·h/mL'),
  ('CCc1cc(O)ccc1-c1ccc2c(-c3nc(C4=CCN(C(=O)[C@@H](N)C(C)(C)O)C4)c[nH]3)n[nH]c2c1', 'AUC(0-t)', '< 500 ng·h/mL'),
  ('CCc1cc(O)ccc1-c1ccc2c(-c3nc(C4=CCN(C5CCC5)CC4)c[nH]3)n[nH]c2c1F', 'AUC(0-t)', '< 500 ng·h/mL');

Ask: Using the record for `CCc1cc(O)ccc1-c1ccc2c(-c3nc(C4=CCCN(C5CCN(C)CC5)C4)c[nH]3)n[nH]c2c1` , report its AUC(0-t).
Reply: < 500 ng·h/mL

Ask: Name the recorded AUC(0-t) for `CCc1cc(O)ccc1-c1ccc2c(-c3nc(C4=CCCN(CCO)C4)c[nH]3)n[nH]c2c1F` .
Reply: 500 to 1000 ng·h/mL

Ask: What value of AUC(0-t) has been recorded for this entry: `CCc1cc(O)ccc1-c1ccc2c(-c3nc(C4=CCN(C(C)C)CC4)c[nH]3)n[nH]c2c1F`
Reply: < 500 ng·h/mL

Ask: State the recorded AUC(0-t) for this entry: `CCc1cc(O)ccc1-c1ccc2c(-c3nc(C4=CCCNC4)c[nH]3)n[nH]c2c1`
Reply: 500 to 1000 ng·h/mL

Ask: Form field: reported AUC(0-t) of CCc1cc(O)ccc1-c1ccc2c(-c3nc(C4=CCN(C(C)CO)CC4)c[nH]3)n[nH]c2c1F (stereo not drawn)
Reply: 500 to 1000 ng·h/mL

Ask: What value of AUC(0-t) has been recorded for this entry: `CCc1cc(O)ccc1-c1ccc2c(-c3nc(C4=C(C)CCNC4)c[nH]3)n[nH]c2c1F`
Reply: 500 to 1000 ng·h/mL

Ask: Look up AUC(0-t): `CCc1cc(O)ccc1-c1ccc2c(-c3nc(C4=C[C@H](CC(=O)N(C)C)NC4)c[nH]3)n[nH]c2c1F`
Reply: 1000 to 1500 ng·h/mL

Ask: Query: AUC(0-t); subject: `CCc1cc(O)ccc1-c1ccc2c(-c3nc(C4=CC[C@@H](C)NC4)c[nH]3)n[nH]c2c1F`
Reply: < 500 ng·h/mL

Ask: Would you kindly share the measured AUC(0-t) for `CCc1cc(O)ccc1-c1ccc2c(-c3nc(C4=CCN(CCC(C)(C)O)C4)c[nH]3)n[nH]c2c1` ?
Reply: < 500 ng·h/mL

Ask: I have this molecule here, `CCc1cc(O)ccc1-c1ccc2c(-c3nc(C4=CCN(C5CN(C)C5)C4)c[nH]3)n[nH]c2c1F` , and I need its recorded AUC(0-t).
Reply: 500 to 1000 ng·h/mL

Ask: Fill in the blank: the reported AUC(0-t) of `CCc1cc(O)ccc1-c1ccc2c(-c3nc(C4=CCN(CCNS(C)(=O)=O)CC4)c[nH]3)n[nH]c2c1F` is ____.
Reply: < 500 ng·h/mL

Ask: # AUC(0-t) lookup, item `CCc1cc(O)ccc1-c1ccc2c(-c3nc(C4=CCN(C)CC4)c[nH]3)n[nH]c2c1F`
Reply: < 500 ng·h/mL

====

- Tested on: IL-13 induced STAT6 phosphorylation in BEAS-2B human lung epithelial cells
- Assay details: Cellular JAKI potency assay (BEAS-2B)
- Type: cell-based
- Condition: Homo sapiens, BEAS-2B, BEAS-2B cells, read-out: BEAS2B pIC50 (converted)
Endpoint name: IC50

INSERT INTO results (molecule, assay_system, endpoint_name, result) VALUES
  ('CCc1cc(O)ccc1-c1ccc2c(-c3nc(C4=C(C(=O)N(C)C)CNCC4)c[nH]3)n[nH]c2c1F', 'IL-13 induced STAT6 phosphorylation in BEAS-2B human lung epithelial cells', 'IC50', '31.6 to 100 nM'),
  ('CCc1cc(O)ccc1-c1ccc2c(-c3nc(C4=CCN(C(=O)CN(C)C)C4)c[nH]3)n[nH]c2c1F', 'IL-13 induced STAT6 phosphorylation in BEAS-2B human lung epithelial cells', 'IC50', '10 to 31.6 nM'),
  ('CCc1cc(O)ccc1-c1ccc2c(-c3nc(C4=CCN(C[C@@H]5CCN5)CC4)c[nH]3)n[nH]c2c1F', 'IL-13 induced STAT6 phosphorylation in BEAS-2B human lung epithelial cells', 'IC50', '100 to 316 nM');

Would you kindly look at the next entry?
Ask: Reported IC50, molecule CCc1cc(O)ccc1-c1ccc2c(-c3nc(C4=CC(c5ccccc5)NC4)c[nH]3)n[nH]c2c1F (stereo not shown) : ____
Reply: 31.6 to 100 nM

====

The entries below are paired with their reported IC50.
- Test system: IL-13 induced STAT6 phosphorylation in BEAS-2B human lung epithelial cells
- Assay details: Cellular JAKI potency assay (BEAS-2B)
- Type: cell-based
- Condition: Homo sapiens, BEAS-2B, BEAS-2B cells, read-out: BEAS2B pIC50 (converted)

INSERT INTO assay_data (molecule, endpoint_name, result) VALUES
  ('CCc1cc(O)ccc1-c1ccc2c(-c3nc(C4=CCN(C)C4)c[nH]3)n[nH]c2c1F', 'IC50', '0.00316 to 0.01 µM'),
  ('CCc1cc(O)ccc1-c1ccc2c(-c3nc(C4=CCNC(CC)C4)c[nH]3)n[nH]c2c1 (centres unmarked)', 'IC50', '0.01 to 0.0316 µM'),
  ('CCc1cc(O)ccc1-c1ccc2c(-c3nc(C4=CCCN(CCNS(C)(=O)=O)C4)c[nH]3)n[nH]c2c1F', 'IC50', '0.01 to 0.0316 µM'),
  ('CCc1cc(O)ccc1-c1ccc2c(-c3nc(C4=CC[C@H](C)NC4)c[nH]3)n[nH]c2c1', 'IC50', '0.00316 to 0.01 µM'),
  ('CCc1cc(O)ccc1-c1ccc2c(-c3nc(C4=CCN(CCCOC)CC4)c[nH]3)n[nH]c2c1F', 'IC50', '0.01 to 0.0316 µM'),
  ('CCc1cc(O)ccc1-c1ccc2c(-c3nc(C4=C[C@@H](CO)NC4)c[nH]3)n[nH]c2c1', 'IC50', '0.0316 to 0.1 µM');

Shifting focus to the molecule that follows.
Ask: Which IC50 is reported for this molecule? `CCc1cc(O)ccc1-c1ccc2c(-c3nc(C4=CCN(CCNC(C)=O)CC4)c[nH]3)n[nH]c2c1`
Reply: 0.00316 to 0.01 µM
